Tested on: MDA-MB-468 complex spheroids with HUVEC/MSC, viability
measurement-notes: Anticancer human tumor MDA-MB-468 cell line growth inhibition;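 note: spheroids exposed to agents for seven days; 100% = DMSO vehicle control viability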
setup-conditions: second compound 0.316 µM; first compound 3 µM; hits give low values
Each record is given class 1 if its reported viability, T/C is strictly below 4%. Records at or above 4% are given class 0.

See these solved cases before continuing.
Request: Determine whether this compound shows viability, T/C lower than 4% (ties excluded): NS(=O)(=O)OCC1CC(n2ccc3c(NC4CCc5ccccc54)ncnc32)CC1O (stereo not given) + NC1CC1c1ccc(-c2cccc(O)c2)cc1
Response: class 1

Request: Record Nc1ccccc1NC(=O)c1ccc(CNC(=O)OCc2cccnc2)cc1 + NC1CC1c1ccc(-c2cccc(O)c2)cc1 : is its viability, T/C strictly below 4%?
Response: class 1

Request: Confirm or reject: viability, T/C of O=C(C=Cc1cccc(S(=O)(=O)Nc2ccccc2)c1)NO + NC1CC1c1ccc(-c2cccc(O)c2)cc1 lies strictly below 4%
Response: class 0

Request: Is 4% strictly greater than the compound's reported viability, T/C? compound: NS(=O)(=O)OCC1CC(n2ccc3c(NC4CCc5ccccc54)ncnc32)CC1O (stereo not given) + NC1CCC(NC2CC2c2ccccc2)CC1
Response: class 0

Request: Field: below-cutoff. Rule: recorded viability, T/C strictly less than 4%. Subject: O=C(C=Cc1cccc(S(=O)(=O)Nc2ccccc2)c1)NO + NC1CCC(NC2CC2c2ccccc2)CC1
Response: class 0

Request: Decide: viability, T/C of CCN(c1cc(-c2ccc(CN3CCOCC3)cc2)cc(C(=O)NCc2c(C)cc(C)[nH]c2=O)c1C)C1CCOCC1 + NC1CC1c1ccc(-c2cccc(O)c2)cc1 strictly below 4%?
Response: class 0

Request: Does the reported viability, T/C of COc1cc(C2c3cc4c(cc3C(OC3OC5COC(C)OC5C(O)C3O)C3COC(=O)C23)OCO4)cc(OC)c1O (stereo not given) + NC1CC1c1ccc(-c2cccc(O)c2)cc1 stay below 4%?
Response: class 1

Request: viability, T/C strictly < 4% for this compound? CCN(c1cc(-c2ccc(CN3CCOCC3)cc2)cc(C(=O)NCc2c(C)cc(C)[nH]c2=O)c1C)C1CCOCC1 + NC1CCC(NC2CC2c2ccccc2)CC1
Response: class 0

Continuing:
Request: Hi there! Is viability, T/C for COc1cc(C2c3cc4c(cc3C(OC3OC5COC(C)OC5C(O)C3O)C3COC(=O)C23)OCO4)cc(OC)c1O (stereo not given) + NC1CCC(NC2CC2c2ccccc2)CC1 below 4%, do you know?
Response: class 0

Request: I'd appreciate it if you could check whether Nc1ccccc1NC(=O)c1ccc(CNC(=O)OCc2cccnc2)cc1 + NC1CCC(NC2CC2c2ccccc2)CC1 has viability, T/C smaller than 4%.
Response: class 1
